These entries and their values trace back to patent US10004732B2.

experiment: Microsomal clearance assay (M); settings: intrinsic clearance in rat liver microsomes
// returns false (0) unless Assay M RLM CI(int) is strictly below 200 µL/min/mg, in which case true (1)

compound: Cc1cc(-c2nc(-c3cc(S(=O)(=O)NCC(C)(C)N4CCOCC4)ccc3C)cnc2N)ccn1 [Example 129.29]
category: false (0)
//
compound: CCOc1ccc(-c2nc(-c3cc(S(=O)(=O)NCCC(C)(C)O)ccc3C)cnc2N)cn1 [Example 119.13]
category: true (1)
//
compound: Cc1cc(-c2nc(-c3cc(S(=O)(=O)NCC4CCCO4)ccc3C)cnc2N)ccn1 (centres unmarked) [Example 129.17]
category: true (1)
//
compound: Cc1ccc(S(=O)(=O)NCC2(C)CCCO2)cc1-c1cnc(N)c(-c2cn(C)nc2C)n1 (centres unmarked) [Example 128.4]
category: true (1)
//
compound: Cc1ncc(-c2nc(-c3cc(S(=O)(=O)N4CCNC(C(F)(F)F)C4)ccc3C)cnc2N)s1 (centres unmarked) [Example 118]
category: false (0)
//
compound: Cc1ccc(S(=O)(=O)NCC(C)(C)O)cc1-c1cnc(N)c(-c2ccoc2)n1 [Example 39]
category: true (1)
//
compound: Cc1cnn(-c2nc(-c3cc(S(=O)(=O)N[C@H]4CC[C@H](O)CC4)ccc3C)cnc2N)c1 [Example 111]
category: true (1)
//
compound: Cc1cc(-c2nc(-c3cc(S(=O)(=O)NCC4CCCOC4)ccc3C)cnc2N)ccn1 (centres unmarked) [Example 129.14]
category: false (0)
//
compound: Cc1ccc(S(=O)(=O)NCCC(C)(C)O)cc1-c1cnc(N)c(-c2cccs2)n1 [Example 119.45]
category: true (1)
//
compound: Cc1ncc(-c2nc(-c3cc(S(=O)(=O)NC4CCOCC4)ccc3C)cnc2N)s1 [Example 45.3]
category: true (1)
//
compound: Cc1ccc(S(=O)(=O)N[C@H]2CC[C@@](C)(O)CC2)cc1-c1cnc(N)c(-n2cncn2)n1 [Example 69b]
category: false (0)
